The values you see were collected from patent EP2380575B1.

PROTOCOL NOTES: Trial B: pharmacokinetics following single and repeated doses in healthy young male subjects
Format: in vivo, humans
MEASUREMENT CONDITIONS: male, human, in vivo, oral, 800 mg, last dose of 8-day repeated 800 mg o.d. eslicarbazepine acetate, n=6; read-out: Mean Cmax (%CV)
QUANTITY KIND: Cmax (ng/mL)
The figure you give is taken to be in ng/mL; do not add the unit.

query: Item under review: NC(=O)N1c2ccccc2C[C@H](O)c2ccccc21 [eslicarbazepine] . Reported Cmax?
result: 18700

###

PROTOCOL NOTES: Trial B: pharmacokinetics following single and repeated doses in healthy young male subjects
Format: in vivo, humans
MEASUREMENT CONDITIONS: male, human, plasma, oral, 1800 mg, single dose 1800 mg eslicarbazepine acetate, n=6; read-out: Mean AUC0-24h (%CV)
QUANTITY KIND: AUC(0-t)
Remember to follow the number with its unit.

query: Item under review: NC(=O)N1c2ccccc2C[C@H](O)c2ccccc21 [eslicarbazepine] . Reported AUC(0-t)?
result: 508 µg·h/mL
